The entries below are paired with their reported pEC50.
- SYSTEM NAME: T1, mouse PD-1 (Sino Biological), coated on plates (mouse, UniProt Q02242 25-167)
- T1 sequence (looked up): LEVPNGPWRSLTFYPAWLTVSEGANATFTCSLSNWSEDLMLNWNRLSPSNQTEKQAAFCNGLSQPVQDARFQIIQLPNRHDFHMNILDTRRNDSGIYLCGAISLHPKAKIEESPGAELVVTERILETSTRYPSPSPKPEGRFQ
- TEST METHOD NOTES: ELISA, plates coated with mouse PD-1 at 1 µg/ml
pEC50: −log10 of the molar value.

{"columns": ["BINDER", "pEC50"],
 "data": [
  ["2E5 (antibody, human IgG4, V domains shown) VH: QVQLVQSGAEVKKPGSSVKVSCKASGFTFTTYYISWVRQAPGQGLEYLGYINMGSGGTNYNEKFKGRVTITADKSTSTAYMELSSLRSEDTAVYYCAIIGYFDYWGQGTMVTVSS VL: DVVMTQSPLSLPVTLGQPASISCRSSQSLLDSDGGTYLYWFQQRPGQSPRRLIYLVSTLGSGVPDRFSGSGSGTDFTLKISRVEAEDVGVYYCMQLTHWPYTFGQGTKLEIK", 9.43],
  ["2G4 (antibody, human IgG4, V domains shown) VH: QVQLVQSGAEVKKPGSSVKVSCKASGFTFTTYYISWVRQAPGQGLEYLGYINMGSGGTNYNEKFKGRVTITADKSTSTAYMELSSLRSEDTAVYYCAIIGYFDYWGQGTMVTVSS VL: DVVMTQSPLSLPVTLGQPASISCRSSQSLLDSDGSTYLYWFQQRPGQSPRRLIYLVSTLGSGVPDRFSGSGSGTDFTLKISRVEAEDVGVYYCMQLTHWPYTFGQGTKLEIK", 9.70],
  ["2C2 (antibody, human IgG4, V domains shown) VH: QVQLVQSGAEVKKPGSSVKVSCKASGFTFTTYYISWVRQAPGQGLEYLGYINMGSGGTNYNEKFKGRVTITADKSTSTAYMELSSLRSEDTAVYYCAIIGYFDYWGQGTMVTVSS VL: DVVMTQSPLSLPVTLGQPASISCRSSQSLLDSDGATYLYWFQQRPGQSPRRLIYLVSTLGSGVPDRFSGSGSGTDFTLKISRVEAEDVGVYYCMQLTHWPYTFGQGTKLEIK", 9.39],
  ["1H6 (antibody, human IgG4, V domains shown) VH: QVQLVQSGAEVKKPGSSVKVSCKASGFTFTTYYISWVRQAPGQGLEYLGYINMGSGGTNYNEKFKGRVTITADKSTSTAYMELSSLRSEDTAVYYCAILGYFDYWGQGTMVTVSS VL: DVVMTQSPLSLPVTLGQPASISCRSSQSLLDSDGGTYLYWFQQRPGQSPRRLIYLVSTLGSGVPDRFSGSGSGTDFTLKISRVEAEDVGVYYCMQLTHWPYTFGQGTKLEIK", 9.47]
]}
